target: Caspase-3 (Homo sapiens) (UniProt P42574); test: Inhibition of human caspase-3 using fluorogenic peptide as substrate at 31 uM
Sequence (P42574 29-175 limits assumed): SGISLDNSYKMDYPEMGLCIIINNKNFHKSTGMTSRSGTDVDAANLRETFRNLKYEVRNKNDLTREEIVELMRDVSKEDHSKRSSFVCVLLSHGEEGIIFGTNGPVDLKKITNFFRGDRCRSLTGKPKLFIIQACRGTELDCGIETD
Sequence (P42574 176-277 limits assumed): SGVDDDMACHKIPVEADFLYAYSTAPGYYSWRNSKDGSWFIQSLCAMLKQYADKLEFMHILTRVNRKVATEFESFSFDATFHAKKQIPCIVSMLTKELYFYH
Measured Property: inhibition

{"Smiles Repr": "C[C@H](c1cccc2ccccc12)N1CCC(C(=O)NCc2ccc3c(c2)OCO3)CC1", "Result": "< 10%"}
{"Smiles Repr": "C[C@H](c1cccc2ccccc12)N1CCC(C(=O)NCc2cccc(F)c2)CC1", "Result": "< 10%"}
{"Smiles Repr": "CC(=O)Nc1cccc(CNC(=O)C2CCN([C@H](C)c3cccc4ccccc34)CC2)c1", "Result": "< 10%"}
{"Smiles Repr": "C[C@H](c1cccc2ccccc12)N1CCC(C(=O)NCc2ccc(F)cc2)CC1", "Result": "< 10%"}

###

Item-by-item account of selectivity ratio
test: Therapeutic index, ratio of CC50 for african green monkey Vero E6 cells to EC50 for SARS coronavirus infected in african green monkey Vero E6 cells; assay type: cell-based; conditions: read-out: Ratio CC50/EC50

{"Smiles Repr": "C[C@H](c1cccc2ccccc12)N1CCC(C(=O)NCc2ccc(F)cc2)CC1", "selectivity ratio": "> 8.6"}
{"Smiles Repr": "CC(=O)Nc1cccc(CNC(=O)C2CCN([C@H](C)c3cccc4ccccc34)CC2)c1", "selectivity ratio": "> 12"}
{"Smiles Repr": "COC[C@@H](NC(=O)C1CCN([C@H](C)c2cccc3ccccc23)CC1)c1ccccc1", "selectivity ratio": "> 8.5"}
{"Smiles Repr": "C[C@H](c1cccc2ccccc12)N1CCC(C(=O)NCc2cccc(F)c2)CC1", "selectivity ratio": "> 18.5"}

###

biological target: UniProt P43235; assay: Inhibition of human cathepsin K using fluorogenic peptide as substrate
Sequence (P43235 whole entry): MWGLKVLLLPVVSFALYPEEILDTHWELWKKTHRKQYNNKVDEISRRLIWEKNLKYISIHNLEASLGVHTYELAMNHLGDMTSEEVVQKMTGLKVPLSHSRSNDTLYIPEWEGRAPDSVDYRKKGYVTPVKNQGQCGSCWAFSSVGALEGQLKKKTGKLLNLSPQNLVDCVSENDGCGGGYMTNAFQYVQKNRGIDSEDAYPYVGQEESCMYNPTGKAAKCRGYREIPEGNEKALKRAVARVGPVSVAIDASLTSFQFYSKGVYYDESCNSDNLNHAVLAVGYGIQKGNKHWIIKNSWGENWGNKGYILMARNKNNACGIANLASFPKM

{"Smiles Repr": "C[C@H](c1cccc2ccccc12)N1CCC(C(=O)NCc2ccc3c(c2)OCO3)CC1", "IC50": "Not Active"}
{"Smiles Repr": "C[C@H](c1cccc2ccccc12)N1CCC(C(=O)NCc2ccc(F)cc2)CC1", "IC50": "Not Active"}
{"Smiles Repr": "CC(=O)Nc1cccc(CNC(=O)C2CCN([C@H](C)c3cccc4ccccc34)CC2)c1", "IC50": "Not Active"}
{"Smiles Repr": "C[C@H](c1cccc2ccccc12)N1CCC(C(=O)NCc2cccc(F)c2)CC1", "IC50": "Not Active"}

###

molecular target: Ubiquitin carboxyl-terminal hydrolase 7 (Homo sapiens, UniProt Q93009); test: Inhibition of human USP7 using Ub-rhodamine 110 as substrate; details: read-out: IC50
Sequence (Q93009 whole entry): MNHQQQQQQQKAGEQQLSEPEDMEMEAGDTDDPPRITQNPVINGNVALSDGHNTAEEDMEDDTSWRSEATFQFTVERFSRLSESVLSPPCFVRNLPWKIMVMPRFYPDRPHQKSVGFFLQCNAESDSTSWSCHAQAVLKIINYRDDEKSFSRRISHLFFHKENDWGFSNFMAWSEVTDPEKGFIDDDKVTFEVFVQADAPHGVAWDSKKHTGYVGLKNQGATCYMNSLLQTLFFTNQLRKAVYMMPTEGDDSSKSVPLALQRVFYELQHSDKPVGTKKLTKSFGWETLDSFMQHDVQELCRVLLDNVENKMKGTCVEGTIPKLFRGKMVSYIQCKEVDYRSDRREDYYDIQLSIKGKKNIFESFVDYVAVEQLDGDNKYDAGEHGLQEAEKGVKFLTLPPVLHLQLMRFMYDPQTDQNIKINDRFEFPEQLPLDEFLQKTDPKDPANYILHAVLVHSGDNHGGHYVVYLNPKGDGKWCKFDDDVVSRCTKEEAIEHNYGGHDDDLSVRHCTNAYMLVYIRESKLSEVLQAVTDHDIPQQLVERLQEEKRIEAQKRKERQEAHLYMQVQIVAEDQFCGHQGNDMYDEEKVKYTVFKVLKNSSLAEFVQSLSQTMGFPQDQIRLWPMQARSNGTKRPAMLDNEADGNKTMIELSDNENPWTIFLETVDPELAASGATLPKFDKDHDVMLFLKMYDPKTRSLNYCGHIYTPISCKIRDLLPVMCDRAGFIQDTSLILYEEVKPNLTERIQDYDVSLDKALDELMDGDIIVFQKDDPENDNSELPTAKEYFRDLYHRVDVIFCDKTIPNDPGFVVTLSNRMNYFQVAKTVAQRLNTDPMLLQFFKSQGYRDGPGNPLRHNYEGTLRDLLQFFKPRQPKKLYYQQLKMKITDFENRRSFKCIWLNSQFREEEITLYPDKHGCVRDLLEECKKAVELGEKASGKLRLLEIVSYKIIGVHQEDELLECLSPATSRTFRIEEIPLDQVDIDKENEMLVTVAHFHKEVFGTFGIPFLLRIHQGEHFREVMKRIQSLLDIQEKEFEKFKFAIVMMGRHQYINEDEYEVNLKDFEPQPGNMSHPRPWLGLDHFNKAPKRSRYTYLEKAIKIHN
pIC50: −log10 of the molar value.

{"Smiles Repr": "CC(=O)Nc1cccc(CNC(=O)C2CCN([C@H](C)c3cccc4ccccc34)CC2)c1", "pIC50": "< 4.00"}

###

// reported pIC50 per item
molecular target: Replicase polyprotein 1a (Human coronavirus NL63, UniProt P0C6U6)
Sequence (P0C6U6 899-2462 limits assumed): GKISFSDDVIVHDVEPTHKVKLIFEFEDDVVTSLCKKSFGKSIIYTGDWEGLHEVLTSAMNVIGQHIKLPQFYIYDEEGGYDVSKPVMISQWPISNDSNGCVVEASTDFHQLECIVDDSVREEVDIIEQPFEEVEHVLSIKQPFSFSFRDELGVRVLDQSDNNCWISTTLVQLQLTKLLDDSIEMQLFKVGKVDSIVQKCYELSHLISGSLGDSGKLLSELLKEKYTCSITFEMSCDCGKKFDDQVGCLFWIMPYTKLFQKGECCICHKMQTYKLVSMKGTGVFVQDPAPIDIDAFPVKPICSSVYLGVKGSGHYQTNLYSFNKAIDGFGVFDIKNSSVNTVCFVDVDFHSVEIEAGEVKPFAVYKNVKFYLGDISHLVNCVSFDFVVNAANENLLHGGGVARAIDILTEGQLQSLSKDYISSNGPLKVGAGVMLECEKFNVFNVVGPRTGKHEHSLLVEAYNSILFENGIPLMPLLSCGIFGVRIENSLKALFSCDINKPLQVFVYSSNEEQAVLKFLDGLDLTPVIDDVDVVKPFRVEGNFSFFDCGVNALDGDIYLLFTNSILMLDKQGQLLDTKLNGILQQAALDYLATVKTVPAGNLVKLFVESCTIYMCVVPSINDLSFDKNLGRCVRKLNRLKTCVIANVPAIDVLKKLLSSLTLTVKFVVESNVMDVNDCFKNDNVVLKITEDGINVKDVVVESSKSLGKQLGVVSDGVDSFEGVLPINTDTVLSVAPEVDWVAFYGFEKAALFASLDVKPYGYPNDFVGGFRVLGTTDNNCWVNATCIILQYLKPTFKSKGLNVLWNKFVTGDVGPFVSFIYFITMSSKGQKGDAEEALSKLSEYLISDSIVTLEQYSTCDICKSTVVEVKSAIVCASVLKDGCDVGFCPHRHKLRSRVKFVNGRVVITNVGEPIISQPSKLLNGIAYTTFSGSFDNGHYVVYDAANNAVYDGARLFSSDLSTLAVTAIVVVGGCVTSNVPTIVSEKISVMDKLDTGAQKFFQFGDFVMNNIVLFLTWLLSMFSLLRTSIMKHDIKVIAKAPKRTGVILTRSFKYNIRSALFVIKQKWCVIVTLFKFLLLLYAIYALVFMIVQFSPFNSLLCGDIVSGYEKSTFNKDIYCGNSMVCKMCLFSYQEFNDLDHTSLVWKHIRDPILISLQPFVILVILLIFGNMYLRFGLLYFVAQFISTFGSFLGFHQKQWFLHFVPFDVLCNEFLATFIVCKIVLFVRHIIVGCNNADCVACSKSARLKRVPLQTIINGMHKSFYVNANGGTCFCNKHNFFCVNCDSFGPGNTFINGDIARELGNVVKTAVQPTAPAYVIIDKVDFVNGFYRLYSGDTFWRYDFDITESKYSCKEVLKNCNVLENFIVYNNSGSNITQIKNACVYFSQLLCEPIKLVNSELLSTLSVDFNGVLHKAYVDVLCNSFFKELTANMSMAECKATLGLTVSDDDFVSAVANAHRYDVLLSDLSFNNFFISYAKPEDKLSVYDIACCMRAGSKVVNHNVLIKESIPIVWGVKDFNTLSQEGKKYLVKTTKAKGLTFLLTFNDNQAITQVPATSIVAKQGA
pIC50: −log10 of the molar value.

{"Smiles Repr": "CC(=O)Nc1ccc(CNC(=O)C2CCN([C@H](C)c3cccc4ccccc34)CC2)cc1", "Target Or System": "Replicase polyprotein 1a (Human coronavirus NL63, UniProt P0C6U6)", "pIC50": 4.43}
{"Smiles Repr": "C[C@H](c1cccc2ccccc12)N1CCC(C(=O)NCc2ccc3c(c2)OCO3)CC1", "Target Or System": "Replicase polyprotein 1a (Human coronavirus NL63, UniProt P0C6U6)", "pIC50": 4.74}
{"Smiles Repr": "C[C@H](c1cccc2ccccc12)N1CCC(C(=O)NCc2ccc(F)c(F)c2)CC1", "Target Or System": "Replicase polyprotein 1a (Human coronavirus NL63, UniProt P0C6U6)", "pIC50": 4.36}
{"Smiles Repr": "COc1cc(CNC(=O)C2CCN([C@H](C)c3cccc4ccccc34)CC2)ccn1", "Target Or System": "Replicase polyprotein 1a (Human coronavirus NL63, UniProt P0C6U6)", "pIC50": 4.23}
{"Smiles Repr": "CC(=O)Nc1cccc(CNC(=O)C2CCN([C@H](C)c3cccc4ccccc34)CC2)c1", "Target Or System": "Replicase polyprotein 1a (Human coronavirus NL63, UniProt P0C6U6)", "pIC50": 4.34}
